- TEST: chemical genetic growth profiling, strain panel (AID 1159580);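 note: tested at 20 µM; growth read once vehicle control cultures reached saturation at 30 °C; 1 = growth at the plate median or of vehicle wells; lower values mean less growth of the strain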
- TEST_PARAMETERS: S. cerevisiae deletion strains, growth OD, locus YJL187C, strain SWE1, stronger effect = lower value
Hit rate of the full screen: of about 5,500 compounds, about 2,000 (36%) were called active. Another 18% or so got no clear call; they are omitted. Some of the results follow.
RECORDED_METRIC: normalized growth
In your answer, state the number alone without any accompanying words.

Lab note: O=c1c(-c2ccc(O)cc2)coc2c(C3O[C@H](CO)[C@@H](O)[C@H](O)[C@H]3O)c(O)ccc12 (some centres undefined) gave normalized growth of 0.977

get_value(item= C/C=C/CC(C)C(O)C1C(=O)NC(CC)C(=O)N(C)CC(=O)N(C)C(CC(C)C)C(=O)NC(C(C)C)C(=O)N(C)C(CC(C)C)C(=O)NC(C)C(=O)NC(C)C(=O)N(C)C(CC(C)C)C(=O)N(C)C(CC(C)C)C(=O)N(C)C(C(C)C)C(=O)N1C (centres undefined) , readout=normalized growth) returns 1.02

Given item COC(=O)Cc1cc(OC)c(OC)cc1[N+](=O)[O-] , the value recorded as its normalized growth is 0.983

Form field normalized growth, entry COc1c(O)cc2c(c1O)[C@H]1O[C@H](CO)[C@@H](O)[C@H](O)[C@@H]1OC2=O : 1.03

###

Hi there, I'd appreciate the recorded normalized growth for every entry that follows.
- TEST: chemical genetic growth profiling, strain panel (AID 1159580);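 note: tested at 20 µM; growth read once vehicle control cultures reached saturation at 30 °C; 1 = growth at the plate median or of vehicle wells; lower values mean less growth of the strain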
- TEST_PARAMETERS: S. cerevisiae deletion strains, growth OD, locus YML016C, strain PPZ1, stronger effect = lower value
Screen size: about 5,500 compounds; about 2,000 (36%) were called active. About 18% were inconclusive and are not listed. The list shows a part of the results.

Lab note: measured normalized growth of CC(=O)O[C@@H]1CC2C(C)(CC[C@H](O)C2(C)C)C2CC[C@]3(C)C(=CC(=O)O[C@H]3c3ccoc3)C21C (some centres undefined) was 1.01 (inactive)

Just so you know, measured normalized growth for CC1(C)C(=O)CC[C@@]2(C)C1C[C@@H](O)[C@@]1(C)C3=CC(=O)O[C@@H](c4ccoc4)[C@]3(C)CCC21 (some centres undefined) came out at 1.01 (inactive)

normalized growth recorded for this compound, C[C@@H]1CC[C@@]23CCC4(C)[C@@](C=CC5[C@@]6(C)CC[C@H](O)C(C)(C)C6CC[C@]54C)(OC2=O)C3[C@H]1C (some centres undefined) , is 1.01 (inactive)

# compound C[C@@H]1CC[C@@]23CCC4(C)[C@@](C=CC5[C@@]6(C)CCC(=O)C(C)(C)C6CC[C@]54C)(OC2=O)C3[C@H]1C (some centres undefined) ; its normalized growth = 1.02 (inactive)

###

- TEST: chemical genetic growth profiling, strain panel (AID 1159580);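 note: tested at 20 µM; growth read once vehicle control cultures reached saturation at 30 °C; 1 = growth at the plate median or of vehicle wells; lower values mean less growth of the strain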
- TEST_PARAMETERS: S. cerevisiae deletion strains, growth OD, locus YDL005C, strain med2
Screen size: about 5,500 compounds; about 2,000 (36%) were called active. Not shown: some 18% with an inconclusive outcome. Rule as the data show it: active = normalized growth mostly below about 0.91 (no sharp cut-off); inconclusive = no clear call, values can overlap the other calls; inactive = mostly above about 0.92. This is one part of the list.
Classes to choose from: T = active, F = inactive

Please let me know the test result on file for C/C=C(\C)C(=O)O[C@@H]1c2c(ccc3ccc(=O)oc23)OC(C)(C)[C@@H]1OC(C)=O .
F

Would you mind telling me which call this test gave CC[C@@]1(O)C(=O)OCc2c1cc1n(c2=O)Cc2cc3cc(O)ccc3nc2-1 ?
F

Hello, I am checking results. What call was entered for Cc1cc(N)c2ccccc2[n+]1CCCCCCCCCC[n+]1c(C)cc(N)c2ccccc21 ?
T

Fill in: this test's call for CC(=O)O[C@@H]1c2c(ccc3ccc(=O)oc23)OC(C)(C)[C@@H]1OC(=O)CC(C)C is ___
F

What call does the record list for O=C(/C=C(\O)c1ccccc1)c1ccccc1O ?
F

Tell me the recorded outcome of this test for COC1C(O)C(O[C@H]2CC[C@]3(C=O)C4C(CC[C@]3(O)C2)[C@@]2(O)CC[C@H](C3=CC(=O)OC3)[C@@]2(C)C[C@H]4OC(C)=O)OC(C)C1OC(C)=O (some centres undefined) .
F

Hey, what did the test say about CC1=CC(=O)C2C(C)(C)CCC[C@]2(C)[C@@]1(O)CCc1ccoc1 (some centres undefined) ?
F

Per the assay record, what outcome was assigned to NC[C@H]1O[C@H](O[C@H]2[C@H](O)[C@@H](O[C@H]3O[C@H](CO)[C@@H](O)[C@H](N)[C@H]3O)[C@H](N)C[C@@H]2N)[C@H](N)[C@@H](O)[C@@H]1O ?
F

What classification did CC(C)c1cccc(O)c(=O)c1 end up with in this test?
T

# outcome recorded in this test, key = CC1=C2C(O)C(=O)OC3CC4C(C)(C)C(=O)C=C[C@]4(C)C(CC1)[C@]23C (some centres undefined)
F

Which outcome was entered for the compound CC1(C)Oc2ccc3ccc(=O)oc3c2CC1O (centres undefined) in this test?
F

Look up the recorded call for COC(=O)[C@H]1[C@H]2C[C@H]3c4[nH]c5cc(OC)ccc5c4CCN3C[C@H]2C[C@@H](OC(=O)c2cc(OC)c(OC)c(OC)c2)[C@@H]1OC in this test.
F

Look up the recorded call for C[C@@H]1O[C@@H](O[C@H]2CC[C@]3(C=O)C4CC[C@]5(C)[C@@H](C6=CC(=O)OC6)CC[C@]5(O)C4CC[C@]3(O)C2)[C@H](O)[C@H](O)[C@H]1O (some centres undefined) in this test.
F

Per the records of this test, what outcome belongs to CO[C@@H]1[C@@H](OC(N)=O)[C@@H](O)[C@H](Oc2ccc3c(O)c(NC(=O)c4ccc(O)c(CC=C(C)C)c4)c(=O)oc3c2C)OC1(C)C ?
F

# credit: PubChem BioAssay AID1159580
